Tested on: KM20L2 colon
assay-text: NCI tumour cell line growth inhibition, 48 h
readout: TGI

Query block: TGI lookup needed for O=C(c1ccc(Cl)cc1)C1OC12C(=O)Nc1ccccc12 (centres undefined) , thanks.
Result block: 41.3 µM

Query block: TGI lookup needed for O=S(=O)(c1ccc(O)c(C=Nc2ccc(Cl)cc2)c1)c1ccc(O)c(C=Nc2ccc(Cl)cc2)c1 , thanks.
Result block: > 100 µM

Query block: TGI lookup needed for COC(=O)/C(=N/NC(N)=O)C(C(=O)OC)C(=O)C(=O)Nc1ccc(Cl)cc1 (centres undefined) , thanks.
Result block: > 100 µM

Query block: TGI lookup needed for COC(=O)CC(C(C(C)=O)C(=O)OCc1ccccc1)N1C(=O)OCC1c1ccccc1 (centres undefined) , thanks.
Result block: > 100 µM
